Recorded values, source patent US20120245176A1.

# Procedure Details: Mouse Liver Microsomal Stability
# Condition Info: mouse liver microsomes
In this section, each of the compounds is paired with its reported Mouse Liver Microsomal Stability (% Remaining after 10 minutes).
Attribute Measured: Mouse Liver Microsomal Stability (% Remaining after 10 minutes) (%)

>>> readout_value("Cc1onc(-c2cccnc2Cl)c1C(=O)N1CCN(c2ccc([N+](=O)[O-])cc2Cl)CC1")
18
>>> readout_value("COc1ccccc1-c1nnn(C)c1C(=O)N1CCN(c2ccc([N+](=O)[O-])cc2Cl)CC1")
45
>>> readout_value("COc1cc(F)ccc1-c1noc(C)c1C(=O)N1CCN(c2ccc([N+](=O)[O-])cc2Cl)CC1")
28
>>> readout_value("Cc1onc(-c2ccccc2)c1C(=O)N1CCN(c2ccc([N+](=O)[O-])cc2Cl)CC1 [reference compound]")
20
>>> readout_value("Cc1onc(-c2cccc(Cl)c2)c1C(=O)N1CCN(c2ccc([N+](=O)[O-])cc2Cl)CC1")
85
>>> readout_value("COc1ccccc1-c1n[nH]c(C)c1C(=O)N1CCN(c2ncc([N+](=O)[O-])cc2Cl)CC1")
16
>>> readout_value("Cc1nnn(-c2ccccc2Cl)c1C(=O)N1CCN(c2ccc([N+](=O)[O-])cc2Cl)CC1")
23
>>> readout_value("Cc1onc(-c2ccccc2C(N)=O)c1C(=O)N1CCN(c2ccc([N+](=O)[O-])cc2Cl)CC1")
61
>>> readout_value("COc1ccccc1-c1ncn(C)c1C(=O)N1CCN(c2ccc([N+](=O)[O-])cc2Cl)CC1")
43
>>> readout_value("COc1ccccc1-c1n[nH]c(C)c1C(=O)N1CCN(c2ccc([N+](=O)[O-])cc2Cl)CC1")
65
>>> readout_value("Cc1[nH]nc(-c2ccccc2Cl)c1C(=O)N1CCN(c2ccc([N+](=O)[O-])cc2Cl)CC1")
61

###

# Tested on: A/H5N1/Duck_PA
# Procedure Details: microbe, parasite or virus in culture
# Format: cell-based, influenza virus
# Condition Info: read-out: A/H5N1/Duck_PA EC50
Attribute Measured: EC50

>>> readout_value("COc1ccccc1-c1n[nH]c(C)c1C(=O)N1CCN(c2ccc([N+](=O)[O-])cc2Cl)CC1")
"< 10 µM"
>>> readout_value("COc1ccc(NC(C)=O)cc1-c1noc(C)c1C(=O)N1CCN(c2ccc([N+](=O)[O-])cc2Cl)CC1")
"< 10 µM"
>>> readout_value("COc1ccccc1-c1ncn(C)c1C(=O)N1CCN(c2ccc([N+](=O)[O-])cc2Cl)CC1")
"< 10 µM"
>>> readout_value("COc1ccccc1-c1nnn(C)c1C(=O)N1CCN(c2ncc([N+](=O)[O-])cc2Cl)CC1")
"< 10 µM"
>>> readout_value("Cc1nnn(-c2ccccc2Cl)c1C(=O)N1CCN(c2ccc([N+](=O)[O-])cc2Cl)CC1")
"< 10 µM"
>>> readout_value("Cc1cnn(-c2ccccc2Cl)c1C(=O)N1CCN(c2ccc([N+](=O)[O-])cc2Cl)CC1")
"< 10 µM"
>>> readout_value("COc1ccccc1-c1noc(C)c1C(=O)N1CCN(c2ncc(Cl)cc2Br)CC1")
"< 10 µM"
>>> readout_value("COc1ccc(-c2noc(C)c2C(=O)N2CCN(c3ccc([N+](=O)[O-])cc3Cl)CC2)c(Cl)c1")
"< 1 µM"
